- Tested on: L5178Y
- Assay Protocol: Potentiation of doxorubicin-induced anticancer activity against mouse L5178Y cells expressing MDR1 assessed as fractional inhibitory concentration after 72 hrs by checkerboard microplate assay
- Assay type: functional
Endpoint Name: fractional inhibitory concentration index (FICI)

Molecule	Target Of Assay	Reported
CO[C@H]1C=C2[C@@H](CC[C@H](O)C2(C)C)[C@]2(C)CC[C@]3(C)[C@@H]([C@H](C)C[C@H](C=C(C)C)OC(C)=O)CC[C@@]3(C)[C@H]12 [KARAVOATE A]	L5178Y	0.44
CO[C@H]1C=C2[C@@H](CC[C@H](O)C2(C)C)[C@]2(C)CC[C@]3(C)[C@@H]([C@H](C)C[C@@H](O)C=C(C)C)CC[C@@]3(C)[C@H]12	L5178Y	0.28
COC(C)(C)/C=C/C[C@@H](C)[C@H]1CC[C@@]2(C)[C@@H]3[C@@H](O[C@H]4O[C@@H](CO)[C@H](O)[C@H](O)[C@@H]4O)C=C4[C@@H](CC[C@H](O)C4(C)C)[C@]3(C)CC[C@]12C [BALSAMINOSIDE A]	L5178Y	0.37
COC(C)(C)/C=C/C[C@@H](C)[C@H]1CC[C@@]2(C)[C@@H]3[C@@H](O)C=C4[C@@H](CC[C@H](O)[C@]4(C)CO)[C@]3(C)CC[C@]12C	L5178Y	0.18

----------
- Target Of Assay: ATP-dependent translocase ABCB1 (Homo sapiens)
- Assay Protocol: Reversal of human MDR1-mediated multidrug resistance in mouse L5178Y cells expressing MDR1 assessed as mean fluorescence intensity of rhodamine-123 uptake at 20 uM after 10 mins by flow cytometry
- Assay type: cell-based
Label Satisfied for high-side Activity (at or above 400) and Not satisfied for low-side Activity (below it).

Compound	Group Label
COC(C)(C)/C=C/C[C@@H](C)[C@H]1CC[C@@]2(C)[C@@H]3[C@@H](O)C=C4[C@@H](CC[C@H](O)[C@]4(C)CO)[C@]3(C)CC[C@]12C [BALSAMINAGENIN B]	Satisfied
CO[C@H]1C=C2[C@@H](CC[C@H](OC(C)=O)C2(C)C)[C@]2(C)CC[C@]3(C)[C@@H]([C@H](C)C[C@H](C=C(C)C)OC(C)=O)CC[C@@]3(C)[C@H]12 [KARAVOATE B]	Satisfied
CO[C@H]1C=C2[C@@H](CC[C@H](O)C2(C)C)[C@]2(C)CC[C@]3(C)[C@@H]([C@H](C)C[C@H](C=C(C)C)OC(C)=O)CC[C@@]3(C)[C@H]12 [KARAVOATE A]	Satisfied
CCC(=O)O[C@@H](C=C(C)C)C[C@@H](C)[C@H]1CC[C@@]2(C)[C@@H]3[C@@H](OC)C=C4[C@@H](CC[C@H](O)C4(C)C)[C@]3(C)CC[C@]12C [KARAVOATE C]	Satisfied
CCC(=O)O[C@H]1CC[C@@H]2C(=C[C@H](OC)[C@@H]3[C@@]2(C)CC[C@]2(C)[C@@H]([C@H](C)C[C@H](C=C(C)C)OC(=O)CC)CC[C@@]32C)C1(C)C [KARAVOATE D]	Not satisfied

----------
- Target Of Assay: ATP-dependent translocase ABCB1 (Homo sapiens, UniProt P08183)
- Sequence (P08183 whole entry): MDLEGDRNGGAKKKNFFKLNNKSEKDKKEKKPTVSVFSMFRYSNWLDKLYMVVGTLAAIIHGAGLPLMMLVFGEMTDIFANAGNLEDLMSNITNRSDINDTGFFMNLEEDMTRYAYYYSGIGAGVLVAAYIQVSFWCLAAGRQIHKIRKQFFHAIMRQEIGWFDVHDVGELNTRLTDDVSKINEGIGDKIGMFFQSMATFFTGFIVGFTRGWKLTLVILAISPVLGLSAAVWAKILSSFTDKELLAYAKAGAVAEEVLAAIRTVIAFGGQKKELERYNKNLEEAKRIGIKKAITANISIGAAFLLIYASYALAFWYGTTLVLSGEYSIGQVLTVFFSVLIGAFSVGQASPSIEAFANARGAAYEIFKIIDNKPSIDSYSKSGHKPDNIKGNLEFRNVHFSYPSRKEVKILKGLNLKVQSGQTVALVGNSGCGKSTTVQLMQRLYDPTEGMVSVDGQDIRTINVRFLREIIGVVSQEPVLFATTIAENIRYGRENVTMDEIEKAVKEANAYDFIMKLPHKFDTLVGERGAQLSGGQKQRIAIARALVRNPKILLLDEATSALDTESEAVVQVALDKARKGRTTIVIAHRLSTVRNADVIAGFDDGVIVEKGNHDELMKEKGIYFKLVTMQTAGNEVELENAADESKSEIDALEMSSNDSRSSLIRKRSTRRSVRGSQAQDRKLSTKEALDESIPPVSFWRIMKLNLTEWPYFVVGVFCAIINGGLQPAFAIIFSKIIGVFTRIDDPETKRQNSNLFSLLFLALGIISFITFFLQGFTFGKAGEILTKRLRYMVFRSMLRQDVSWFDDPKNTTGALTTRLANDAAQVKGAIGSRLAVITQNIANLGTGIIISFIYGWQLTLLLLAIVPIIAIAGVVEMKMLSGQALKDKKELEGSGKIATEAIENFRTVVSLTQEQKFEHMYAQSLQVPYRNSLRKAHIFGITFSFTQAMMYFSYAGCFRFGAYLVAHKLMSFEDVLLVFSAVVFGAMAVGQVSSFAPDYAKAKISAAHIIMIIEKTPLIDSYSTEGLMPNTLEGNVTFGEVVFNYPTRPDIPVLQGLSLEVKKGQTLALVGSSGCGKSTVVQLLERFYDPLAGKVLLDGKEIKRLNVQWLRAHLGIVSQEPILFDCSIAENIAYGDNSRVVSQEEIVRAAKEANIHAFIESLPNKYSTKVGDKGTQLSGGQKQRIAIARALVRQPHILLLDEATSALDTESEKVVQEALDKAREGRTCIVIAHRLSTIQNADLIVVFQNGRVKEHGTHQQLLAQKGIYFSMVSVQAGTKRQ
- Assay Protocol: Reversal of human MDR1-mediated multidrug resistance in mouse L5178Y cells expressing MDR1 assessed as fluorescence activity ratio at 20 uM after 10 mins by rhodamine-123 exclusion test
- Format: cell-based

Compound	Activity
CO[C@H]1C=C2[C@@H](CC[C@H](O)C2(C)C)[C@]2(C)CC[C@]3(C)[C@@H]([C@H](C)C[C@@H](O)C=C(C)C)CC[C@@]3(C)[C@H]12 [KARAVELAGENIN C]	46
CCC(=O)O[C@H]1CC[C@@H]2C(=C[C@H](OC)[C@@H]3[C@@]2(C)CC[C@]2(C)[C@@H]([C@H](C)C[C@H](C=C(C)C)OC(=O)CC)CC[C@@]32C)C1(C)C [KARAVOATE D]	2.4
CCCC(=O)O[C@@H](C=C(C)C)C[C@@H](C)[C@H]1CC[C@@]2(C)[C@@H]3[C@@H](OC)C=C4[C@@H](CC[C@H](O)C4(C)C)[C@]3(C)CC[C@]12C [KARAVOATE E]	21.7
COC(C)(C)/C=C/C[C@@H](C)[C@H]1CC[C@@]2(C)[C@@H]3[C@@H](O)C=C4[C@@H](CC[C@H](O)[C@]4(C)CO)[C@]3(C)CC[C@]12C [BALSAMINAGENIN B]	104.2
CO[C@H]1C=C2[C@@H](CC[C@H](O)C2(C)C)[C@]2(C)CC[C@]3(C)[C@@H]([C@H](C)C[C@H](C=C(C)C)OC(C)=O)CC[C@@]3(C)[C@H]12 [KARAVOATE A]	34.2
COC(C)(C)/C=C/C[C@@H](C)[C@H]1CC[C@@]2(C)[C@@H]3[C@@H](O[C@H]4O[C@@H](CO)[C@H](O)[C@H](O)[C@@H]4O)C=C4[C@@H](CC[C@H](O)C4(C)C)[C@]3(C)CC[C@]12C [BALSAMINOSIDE A]	89.4

----------
- Target Of Assay: ATP-dependent translocase ABCB1 (Homo sapiens)
- Assay Protocol: Reversal of human MDR1-mediated multidrug resistance in mouse L5178Y cells expressing MDR1 assessed as fluorescence activity ratio at 20 uM after 10 mins by rhodamine-123 exclusion test
- Assay type: cell-based

Compound	Activity
CO[C@H]1C=C2[C@@H](CC[C@H](OC(C)=O)C2(C)C)[C@]2(C)CC[C@]3(C)[C@@H]([C@H](C)C[C@H](C=C(C)C)OC(C)=O)CC[C@@]3(C)[C@H]12 [KARAVOATE B]	37.5
CCC(=O)O[C@@H](C=C(C)C)C[C@@H](C)[C@H]1CC[C@@]2(C)[C@@H]3[C@@H](OC)C=C4[C@@H](CC[C@H](O)C4(C)C)[C@]3(C)CC[C@]12C [KARAVOATE C]	40.6
C[C@H](C/C=C/C(C)(C)O)[C@H]1CC[C@@]2(C)[C@@H]3[C@@H](O)C=C4[C@@H](CC[C@H](O)[C@]4(C)CO)[C@]3(C)CC[C@]12C	44.3

----------
List of Activity values.
- Target Of Assay: ATP-dependent translocase ABCB1 (Homo sapiens)
- Assay Protocol: Reversal of human MDR1-mediated multidrug resistance in mouse L5178Y cells expressing MDR1 assessed as forward scatter count measured by cell size ratio at 20 uM after 10 mins by flow cytometry
- Format: cell-based
Endpoint Name: Activity

Compound	Endpoint Name	Reported
COC(C)(C)/C=C/C[C@@H](C)[C@H]1CC[C@@]2(C)[C@@H]3[C@@H](O[C@H]4O[C@@H](CO)[C@H](O)[C@H](O)[C@@H]4O)C=C4[C@@H](CC[C@H](O)C4(C)C)[C@]3(C)CC[C@]12C [BALSAMINOSIDE A]	Activity	441.6
CO[C@H]1C=C2[C@@H](CC[C@H](O)C2(C)C)[C@]2(C)CC[C@]3(C)[C@@H]([C@H](C)C[C@@H](O)C=C(C)C)CC[C@@]3(C)[C@H]12 [KARAVELAGENIN C]	Activity	551.8
CCC(=O)O[C@@H](C=C(C)C)C[C@@H](C)[C@H]1CC[C@@]2(C)[C@@H]3[C@@H](OC)C=C4[C@@H](CC[C@H](O)C4(C)C)[C@]3(C)CC[C@]12C [KARAVOATE C]	Activity	481.3
CO[C@H]1C=C2[C@@H](CC[C@H](OC(C)=O)C2(C)C)[C@]2(C)CC[C@]3(C)[C@@H]([C@H](C)C[C@H](C=C(C)C)OC(C)=O)CC[C@@]3(C)[C@H]12 [KARAVOATE B]	Activity	462.9

----------
- Assay Protocol: Octanol-water partition coefficient, log D of the compound
- Type: physicochemical
The label satisfied is reserved for logD strictly under 8; not satisfied covers values equal to or above it.

Compound	Group Label
CCC(=O)O[C@@H](C=C(C)C)C[C@@H](C)[C@H]1CC[C@@]2(C)[C@@H]3[C@@H](OC)C=C4[C@@H](CC[C@H](O)C4(C)C)[C@]3(C)CC[C@]12C [KARAVOATE C]	not satisfied
COC(C)(C)/C=C/C[C@@H](C)[C@H]1CC[C@@]2(C)[C@@H]3[C@@H](O)C=C4[C@@H](CC[C@H](O)[C@]4(C)CO)[C@]3(C)CC[C@]12C	satisfied
CCCC(=O)O[C@@H](C=C(C)C)C[C@@H](C)[C@H]1CC[C@@]2(C)[C@@H]3[C@@H](OC)C=C4[C@@H](CC[C@H](O)C4(C)C)[C@]3(C)CC[C@]12C [KARAVOATE E]	not satisfied
CO[C@H]1C=C2[C@@H](CC[C@H](O)C2(C)C)[C@]2(C)CC[C@]3(C)[C@@H]([C@H](C)C[C@@H](O)C=C(C)C)CC[C@@]3(C)[C@H]12	satisfied

Source: ChEMBL document CHEMBL1152588
